The values you see were collected from paper PMC7463999.

Target: GSK-3β (Homo sapiens, UniProt P49841)
Sequence (P49841 whole entry): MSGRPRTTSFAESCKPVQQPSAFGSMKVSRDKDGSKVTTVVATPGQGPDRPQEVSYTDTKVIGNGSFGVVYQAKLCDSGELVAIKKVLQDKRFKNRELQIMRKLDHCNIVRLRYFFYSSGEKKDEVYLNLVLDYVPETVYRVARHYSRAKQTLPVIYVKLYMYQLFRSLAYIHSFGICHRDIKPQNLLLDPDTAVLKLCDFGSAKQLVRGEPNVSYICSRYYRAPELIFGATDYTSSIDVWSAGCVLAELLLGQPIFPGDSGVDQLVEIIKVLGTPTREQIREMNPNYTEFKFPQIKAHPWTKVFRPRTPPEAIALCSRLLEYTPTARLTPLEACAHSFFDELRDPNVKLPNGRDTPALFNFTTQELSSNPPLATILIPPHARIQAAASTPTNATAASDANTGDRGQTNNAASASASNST
Metric: Ki (nM)

[[record]]
molecule = "Cc1[nH]nc2c1C(c1ccc(F)cc1)C(C#N)=C(N)N2 (stereo not shown)"
measurement = 1500

[[record]]
molecule = "Cc1[nH]nc2c1C(c1cccs1)C(C#N)=C(N)N2 (stereo not shown)"
measurement = 1220

[[record]]
molecule = "Cc1[nH]nc2c1C(c1ccncc1)C(C#N)=C(N)N2 (stereo not shown)"
measurement = 7140

[[record]]
molecule = "Cc1[nH]nc2c1C(c1ccc([N+](=O)[O-])cc1)C(C#N)=C(N)N2 (stereo not shown)"
measurement = 2170

[[record]]
molecule = "Cc1[nH]nc2c1C(c1ccc(Cl)cc1)C(C#N)=C(N)N2 (stereo not shown)"
measurement = 1360

[[record]]
molecule = "Cc1[nH]nc2c1C(c1ccc(Br)cc1)C(C#N)=C(N)N2 (stereo not shown)"
measurement = 1650

[[record]]
molecule = "Cc1[nH]nc2c1C(c1cccnc1)C(C#N)=C(N)N2 (stereo not shown)"
measurement = 3180

[[record]]
molecule = "Cc1[nH]nc2c1C(c1cccc([N+](=O)[O-])c1)C(C#N)=C(N)N2 (stereo not shown)"
measurement = 570

[[record]]
molecule = "Cc1[nH]nc2c1C(c1ccccc1Cl)C(C#N)=C(N)N2 (stereo not shown)"
measurement = 1060

[[record]]
molecule = "Cc1[nH]nc2c1C(c1ccccc1Br)C(C#N)=C(N)N2 (stereo not shown)"
measurement = 580


----------
Below: a set of entries, each annotated with reported Papp at 4 h, 100 µM.
System: blood-brain barrier (passive diffusion)
Assay: Blood-brain barrier permeation assay (PAMPA), porcine brain lipid
Assay type: in vitro ADME
Conditions: pH 7.4; PAMPA control compounds, Pe ± SD; read-out: Pe ± SD
Metric: Papp at 4 h, 100 µM (×10⁻⁶ cm/s)

[[record]]
compound = "CC(=O)[C@H]1CC[C@H]2[C@@H]3CCC4=CC(=O)CC[C@]4(C)[C@H]3CC[C@]12C [Progesterone, reference compound]"
assayed_system = "blood-brain barrier (passive diffusion)"
metric = "Papp at 4 h, 100 µM"
unit_abbreviation = "×10⁻⁶ cm/s"
measurement = 2.2

[[record]]
compound = "CN1C(C(=O)Nc2ccccn2)=C(O)c2ccccc2S1(=O)=O [Piroxicam, reference compound]"
assayed_system = "blood-brain barrier (passive diffusion)"
metric = "Papp at 4 h, 100 µM"
unit_abbreviation = "×10⁻⁶ cm/s"
measurement = 3.3


----------
Test system: blood-brain barrier (passive diffusion)
Assay: Blood-brain barrier permeation assay (PAMPA), porcine brain lipid
Type: in vitro ADME
Conditions: PAMPA; 100 µM, PBS pH 7.4, 4 h at 25 °C, mean ± SEM; read-out: PAMPA Pe
Entries are grouped by Papp at 4 h, 100 µM into these classes: bucket 1 = under 5 ×10⁻⁶ cm/s, bucket 2 = from 5 ×10⁻⁶ cm/s up to 9 ×10⁻⁶ cm/s, bucket 3 = 9 ×10⁻⁶ cm/s and over

[[record]]
compound = "Cc1[nH]nc2c1C(c1cccc(Cl)c1)C(C#N)=C(N)N2 (stereo not drawn)"
answer_label = "bucket 3"

[[record]]
compound = "Cc1[nH]nc2c1C(c1cccc([N+](=O)[O-])c1)C(C#N)=C(N)N2 (stereo not drawn)"
answer_label = "bucket 1"

[[record]]
compound = "Cc1[nH]nc2c1C(c1cccnc1)C(C#N)=C(N)N2 (stereo not drawn)"
answer_label = "bucket 1"

[[record]]
compound = "Cc1[nH]nc2c1C(c1ccccc1Br)C(C#N)=C(N)N2 (stereo not drawn)"
answer_label = "bucket 3"

[[record]]
compound = "Cc1[nH]nc2c1C(c1ccccc1)C(C#N)=C(N)N2 (stereo not drawn)"
answer_label = "bucket 2"

[[record]]
compound = "Cc1[nH]nc2c1C(c1ccc(Cl)cc1)C(C#N)=C(N)N2 (stereo not drawn)"
answer_label = "bucket 3"

[[record]]
compound = "Cc1[nH]nc2c1C(c1ccc(F)cc1)C(C#N)=C(N)N2 (stereo not drawn)"
answer_label = "bucket 1"

[[record]]
compound = "Cc1[nH]nc2c1C(c1ccc(Br)cc1)C(C#N)=C(N)N2 (stereo not drawn)"
answer_label = "bucket 2"

[[record]]
compound = "Cc1[nH]nc2c1C(c1ccccc1Cl)C(C#N)=C(N)N2 (stereo not drawn)"
answer_label = "bucket 3"

[[record]]
compound = "Cc1[nH]nc2c1C(c1ccc([N+](=O)[O-])cc1)C(C#N)=C(N)N2 (stereo not drawn)"
answer_label = "bucket 1"

